FYI, the data here is from patent US4294833A.

system: platelet aggregation induced by thrombin; assay: Platelet aggregation inhibitory activity in vivo (Born aggregometer), thrombin-induced; set-up: species or system New Zealand rabbits; details: Oryctolagus cuniculus, Platelet, ip, dose for 50% inhibition of thrombin-induced aggregation curve; rabbits, intraperitoneal, blood 2, 4 and 6 hours after injection; read-out: platelet antiaggregant activity (AAP), DI50, Thrombin
Assign ED50 to each entry below.
Please provide the amount together with its unit, number first.

Request: GET /values?readout=ED50&item= CC=CCOc1ccc(C(=O)NCc2cccnc2)cc1C(=O)NCc1cccnc1 [Example 11]
Response: 18.6 mg/kg

Request: Record: CC=COc1c(Cl)cc(C(=O)N(CCCCC)Cc2cccnc2)cc1C(=O)N(CCCCC)Cc1cccnc1 [Example 51]
Response: 32.4 mg/kg

Request: Record: C=C(C)COc1ccc(C(=O)N(CCC)Cc2ccncc2)cc1C(=O)N(CCC)Cc1ccncc1 [Example 70]
Response: 20.8 mg/kg
